system tested: Gonadotropin-releasing hormone receptor (Homo sapiens, UniProt P30968)
Sequence (P30968 whole entry): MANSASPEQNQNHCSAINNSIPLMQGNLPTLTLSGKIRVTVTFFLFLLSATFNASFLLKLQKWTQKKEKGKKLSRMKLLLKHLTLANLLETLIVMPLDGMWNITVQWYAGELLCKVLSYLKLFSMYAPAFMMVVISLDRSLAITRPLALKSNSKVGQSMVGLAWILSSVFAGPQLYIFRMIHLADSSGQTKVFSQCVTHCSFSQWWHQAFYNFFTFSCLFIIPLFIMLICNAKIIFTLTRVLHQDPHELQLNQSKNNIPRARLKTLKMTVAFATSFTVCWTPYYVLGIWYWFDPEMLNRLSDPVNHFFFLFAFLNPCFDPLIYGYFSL
test method notes: Inhibition of human GnRHR expressed in RBL cells assessed as inhibition of GnRH-stimulated [3H]inositol phosphate hydrolysis
Format: functional, cell-based
pIC50: −log10 of the molar value.
Quick rule: pIC50 of at least 7 means Yes, below that means No.

{"query smiles": "Cc1cc(C)cc(-c2[nH]c3c(c2[C@H](C)CNCCc2ccncc2)CN(C(=O)C24CC5CC(CC(C5)C2)C4)CC3)c1", "system tested": "Gonadotropin-releasing hormone receptor (Homo sapiens, UniProt P30968)", "class name": "No"}
{"query smiles": "Cc1cc(C)cc(-c2[nH]c3c(c2[C@H](C)CNCCc2ccc(-c4nnn[nH]4)cc2)CN(C(=O)Cc2c(F)cccc2C(F)(F)F)CC3)c1", "system tested": "Gonadotropin-releasing hormone receptor (Homo sapiens, UniProt P30968)", "class name": "Yes"}
{"query smiles": "Cc1cc(C)cc(-c2[nH]c3c(c2[C@H](C)CNCCC2CCOCC2)CN(C(=O)Cc2c(F)cccc2C(F)(F)F)CC3)c1", "system tested": "Gonadotropin-releasing hormone receptor (Homo sapiens, UniProt P30968)", "class name": "No"}
{"query smiles": "Cc1cc(C)cc(-c2[nH]c3c(c2[C@H](C)CN)CN(C(=O)Cc2c(F)cccc2C(F)(F)F)CC3)c1", "system tested": "Gonadotropin-releasing hormone receptor (Homo sapiens, UniProt P30968)", "class name": "No"}
{"query smiles": "Cc1cc(C)cc(-c2[nH]c3c(c2[C@H](C)CNCCc2ccc4nn[nH]c4c2)CN(C(=O)Cc2c(F)cccc2C(F)(F)F)CC3)c1", "system tested": "Gonadotropin-releasing hormone receptor (Homo sapiens, UniProt P30968)", "class name": "Yes"}
{"query smiles": "CC(=O)N1CCc2[nH]c(-c3cc(C)cc(C)c3)c([C@H](C)CNCCc3ccncc3)c2C1", "system tested": "Gonadotropin-releasing hormone receptor (Homo sapiens, UniProt P30968)", "class name": "No"}
{"query smiles": "Cc1cc(C)cc(-c2[nH]c3c(c2[C@H](C)CNCc2ccc(-c4nnn[nH]4)cc2)CN(C(=O)Cc2c(F)cccc2C(F)(F)F)CC3)c1", "system tested": "Gonadotropin-releasing hormone receptor (Homo sapiens, UniProt P30968)", "class name": "No"}
{"query smiles": "Cc1cc(C)cc(-c2[nH]c3c(c2[C@H](C)CNCCc2ccncc2)CN(C(=O)Cc2ccccc2F)CC3)c1", "system tested": "Gonadotropin-releasing hormone receptor (Homo sapiens, UniProt P30968)", "class name": "No"}
{"query smiles": "Cc1cc(C)cc(-c2[nH]c3c(c2[C@H](C)CNCCc2ccncc2)CN(C(=O)C2C(C)(C)C2(C)C)CC3)c1", "system tested": "Gonadotropin-releasing hormone receptor (Homo sapiens, UniProt P30968)", "class name": "No"}
{"query smiles": "COc1ccccc1CC(=O)N1CCc2[nH]c(-c3cc(C)cc(C)c3)c([C@H](C)CNCCc3ccncc3)c2C1", "system tested": "Gonadotropin-releasing hormone receptor (Homo sapiens, UniProt P30968)", "class name": "No"}

[Q] Has Cc1cc(C)cc(-c2[nH]c3c(c2[C@H](C)CNCCc2ccc(C(=O)O)cc2)CN(C(=O)Cc2c(F)cccc2C(F)(F)F)CC3)c1 a recorded pIC50 greater than or equal to 7?
[A] Yes

[Q] Has Cc1cc(C)cc(-c2[nH]c3c(c2[C@H](C)CNCCc2ccncc2)CN(C(=O)Cc2ccccc2)CC3)c1 a recorded pIC50 greater than or equal to 7?
[A] No

[Q] Has Cc1cc(C)cc(-c2[nH]c3c(c2[C@H](C)CNCCc2ccncc2)CN(C(=O)Cc2ccccc2Cl)CC3)c1 a recorded pIC50 greater than or equal to 7?
[A] No

[Q] Has Cc1cc(C)cc(-c2[nH]c3c(c2[C@H](C)CNCCc2ccc(-c4nnn[nH]4)nc2)CN(C(=O)Cc2c(F)cccc2C(F)(F)F)CC3)c1 a recorded pIC50 greater than or equal to 7?
[A] Yes
